# credit: the supplement of paper PMC10567573

B1: ZNF263 (parent)
chain: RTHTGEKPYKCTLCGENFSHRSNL

# Variants of: B1
# PROTOCOL_NOTES: protein stability index of a GFP-peptide fusion (GPS, HEK-293T) (PSI 1-6); higher = more stable;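 note: lentivirally expressed fusions sorted by FACS into six bins by GFP to DsRed ratio, PSI derived from sequencing read proportions per bin multiplied by bin number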
# PARTICULARS: c terminus: a fixed tail appended
MEASUREMENT_NAME: protein stability index
Just the number, please, no unit attached.

For the variant `S22Q` , give its measured protein stability index value.
2.01

For the variant `T2S` , give its measured protein stability index value.
2.1

For the variant `E6L` , give its measured protein stability index value.
2.18

For the variant `C11H` , give its measured protein stability index value.
3.13

For the variant `S22Y` , give its measured protein stability index value.
1.63

For the variant `S22R` , give its measured protein stability index value.
2.4

For the variant `L24G` , give its measured protein stability index value.
2.82

For the variant `H3N` , give its measured protein stability index value.
1.97

For the variant `H3Y` , give its measured protein stability index value.
1.93

For the variant `S19F` , give its measured protein stability index value.
2.12

For the variant `K10T` , give its measured protein stability index value.
1.78

For the variant `G15E` , give its measured protein stability index value.
1.76

For the variant `E6Q` , give its measured protein stability index value.
2.34

For the variant `N17T` , give its measured protein stability index value.
1.6

For the variant `Y9M` , give its measured protein stability index value.
1.69

For the variant `K10C` , give its measured protein stability index value.
2.44

For the variant `K7I` , give its measured protein stability index value.
1.99

For the variant `T2G` , give its measured protein stability index value.
1.74

For the variant `S22C` , give its measured protein stability index value.
3.19

For the variant `E6R` , give its measured protein stability index value.
2.34

For the variant `K10D` , give its measured protein stability index value.
2.68

For the variant `S19R` , give its measured protein stability index value.
2.01

For the variant `T2P` , give its measured protein stability index value.
2.34

For the variant `L13Y` , give its measured protein stability index value.
2.04

For the variant `F18E` , give its measured protein stability index value.
2.22

For the variant `T4F` , give its measured protein stability index value.
2.05

For the variant `T4V` , give its measured protein stability index value.
1.69

For the variant `T4E` , give its measured protein stability index value.
2.77

For the variant `T12L` , give its measured protein stability index value.
2.23

For the variant `R21E` , give its measured protein stability index value.
2.69

For the variant `G15H` , give its measured protein stability index value.
2.23

For the variant `T2E` , give its measured protein stability index value.
1.76

For the variant `E16C` , give its measured protein stability index value.
1.98

For the variant `H20R` , give its measured protein stability index value.
1.94

For the variant `S22N` , give its measured protein stability index value.
2.33

For the variant `K7T` , give its measured protein stability index value.
1.94

For the variant `G5M` , give its measured protein stability index value.
2.13

For the variant `H20D` , give its measured protein stability index value.
1.84

For the variant `T4W` , give its measured protein stability index value.
1.75

For the variant `C14N` , give its measured protein stability index value.
3.19

For the variant `E6H` , give its measured protein stability index value.
1.71

For the variant `G5E` , give its measured protein stability index value.
2.46

For the variant `G5W` , give its measured protein stability index value.
2.4

For the variant `H3K` , give its measured protein stability index value.
2.05

For the variant `R21M` , give its measured protein stability index value.
2.22

For the variant `L24D` , give its measured protein stability index value.
2.39
